Recorded measurements of pIC50, one per entry
# TESTED_SYSTEM: N-terminally GST-tagged HCK (75-526) (Homo sapiens (Human), UniProt P08631)
# Sequence (P08631 75-526): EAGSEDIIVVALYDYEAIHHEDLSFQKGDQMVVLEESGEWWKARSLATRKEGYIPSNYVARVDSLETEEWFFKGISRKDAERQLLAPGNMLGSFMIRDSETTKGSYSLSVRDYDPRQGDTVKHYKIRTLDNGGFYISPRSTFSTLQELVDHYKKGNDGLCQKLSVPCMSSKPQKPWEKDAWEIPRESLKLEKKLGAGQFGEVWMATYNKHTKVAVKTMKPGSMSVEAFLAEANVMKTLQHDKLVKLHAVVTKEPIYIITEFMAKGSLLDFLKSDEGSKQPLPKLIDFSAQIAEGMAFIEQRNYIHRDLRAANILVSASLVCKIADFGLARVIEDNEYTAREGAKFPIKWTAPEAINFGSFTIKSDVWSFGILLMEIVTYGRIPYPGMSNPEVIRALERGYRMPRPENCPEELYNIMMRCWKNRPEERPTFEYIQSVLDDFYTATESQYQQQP
# PROTOCOL_NOTES: HCK Kinase Assay (ProFluor Src-Family Kinase Assay)
# Format: biochemical
# COND: HCK inhibitory activity, 50 μM ATP; read-out: HCK Activity
pIC50: −log10 of the molar value.

C[C@H]1CN([C@H]2CC[C@H](c3nc(-c4ccc(Oc5ccccc5)cc4F)c4c(N)ncnn43)CC2)CCN1 [Example 165]: > 7.30
Nc1ncnc2c1c(-c1ccc(Oc3ccccc3)cc1)cn2C1CCC(O)(Cn2ccnc2)CC1 (stereo not shown) [Example 101]: 6.60 to 7.30
CC1(C)CN([C@H]2CC[C@H](n3nc(-c4ccc(Oc5ccccc5)cc4F)c4c(N)ncnc43)CC2)CCN1 [Example 28]: 6.60 to 7.30
CN1CCN([C@H]2CC[C@H](n3cc(-c4ccc(Oc5ccccc5)cc4)c4c(O)ncnc43)CC2)CC1 [Example 87]: > 7.30
CN1CCN([C@H]2CC[C@H](c3nc(-c4ccc(NC(=O)Nc5cc(C(C)(C)C)on5)cc4)c4c(N)nccn43)CC2)CC1 [Example 175]: > 7.30

Param item = CN1CCN([C@H]2CC[C@H](n3cc(-c4ccc(CC(=O)Nc5cc(C(C)(C)C)on5)cc4)c4c(N)ncnc43)CC2)CC1 [Example 124] ; retrieve measured pIC50.
6.60 to 7.30

Param item = CN1CCN([C@H]2CC[C@@H](c3cn(-c4ccc(Oc5ccccc5)cc4)c4c(N)ncnc43)CC2)CC1 [Example 176] ; retrieve measured pIC50.
5.00 to 6.60

Param item = Nc1ncnc2c1c(-c1ccc(Oc3ccccc3)cc1)cn2[C@H]1CC[C@@H](N2CCNC3(CC3)C2)CC1 [Example 36] ; retrieve measured pIC50.
6.60 to 7.30

Param item = NC(=O)C=C1CCC(n2cc(-c3ccc(Oc4ccccc4)cc3)c3c(N)ncnc32)CC1 (stereo not shown) [Example 94] ; retrieve measured pIC50.
> 7.30
